Kindly state composite z-score for each of the entries shown.
# ASSAY_SYSTEM: Calmodulin-1 (Homo sapiens)
# ASSAY: CALM1 binders on microarrays, EGTA buffer, profiling panel, biochemical, small-molecule microarray, Cy5-labelled CALM1 (AID 1111);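 also: labelled calmodulin applied in Tris saline Tween buffer holding calcium plus EGTA and DTT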
# CONDITION_SET: Cy5-CALM1 binding fluorescence, higher = more signal
Please reply with the value in numeric form only.

composite z-score lookup needed for COC(=O)[C@H](C)NC(=O)CCC1CC(OC(=O)NCc2cccc3ccccc23)CC2(CCCC(COC(=O)NCC(c3ccccc3)c3ccccc3)O2)O1 (some centres not stated) , thanks.
-0.0132

composite z-score lookup needed for "Cc1ccc(S(=O)(=O)N[C@H]2COC(=O)CC=C[C@H](C)[C@@H](NS(=O)(=O)c3ccc(C)cc3)COC(=O)CC=C[C@@H]2C)cc1" , thanks.
-0.324

Find the recorded composite z-score belonging to "CO[C@H]1COC(=O)CCC[C@@H](C)[C@H](OC)COC(=O)[C@@H](C)NC(=O)CC=C[C@@H]1C" and report it.
-0.654

Find the recorded composite z-score belonging to "COC(=O)[C@@H]1CC[C@H](C)[C@@H](c2ccc(C)cc2)N1C(=O)c1ccc(C=NO[C@@H]2O[C@H](COC(C)=O)[C@@H](OC(C)=O)[C@H](OC(C)=O)[C@H]2OC(C)=O)cc1" and report it.
0.0167

Recorded composite z-score of "O=C(NN=C1C[C@@H](O)[C@@H](O)[C@@H]2[C@@H]3C(=O)N(Cc4ccccc4)C(=O)[C@@H]3CC[C@@H]12)OCc1ccccc1" , please.
-0.619

// composite z-score lookup, key: CC(C)C[C@H](NC(=O)CCC1CC(OC(=O)NCc2cccc3ccccc23)CC2(CCCC(COC(=O)NCc3ccccc3)O2)O1)C(=O)NCC(c1ccccc1)c1ccccc1 (some centres not stated)
0.0799

composite z-score lookup needed for "Cc1cc2c(c(=O)o1)[C@@H](O)[C@H]1O[C@H]1C2=O" , thanks.
-0.374

* * *

For each record, write down the corresponding z-score.
# ASSAY: PSAC antagonists in infected red cells, primary screen, cell-based, P. falciparum Indochina, OD700, 2 h (AID 1155);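 also: lysis reports solute entry through the parasite surface anion channel PSAC; channel blockers reduce lysis of infected cells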
# CONDITION_SET: P. falciparum Indochina infected erythrocytes, osmotic lysis OD700; higher = more signal, called active from +8 up or from −8 down
Respond numerically, and do not add a unit to the figure.

Entry "CC(C)=CCCC(C)=CCON=C1C[C@@H](O)[C@@H](O)[C@@H]2[C@@H]3C(=O)N(C[C@@H]4CCCO4)C(=O)[C@@H]3CC[C@H]12" has what z-score?
0.847

Which z-score is listed for "CC(C)=CCCC(C)=CCON=C1C[C@@H](O)[C@@H](O)[C@@H]2[C@@H]3C(=O)N(C(C)(C)C)C(=O)[C@@H]3CC[C@@H]12" ?
0.761

Consider the compound "CCN1C(=O)[C@H]2[C@H]3[C@H](O)[C@H](O)CC(=NNC(=O)OCc4ccc(OC)cc4)[C@@H]3CC[C@H]2C1=O" and give its measured z-score.
0.195

Entry "CC(C)(C)N1C(=O)[C@H]2[C@H]3[C@H](O)[C@H](O)CC(=NO[C@@H]4O[C@H](CO)[C@@H](O)[C@H](O)[C@H]4O)[C@H]3CC[C@H]2C1=O" has what z-score?
1.46

Can you look up the measured z-score of CC(=O)OC[C@H]1OC(ON=CC[C@@H]2C=C[C@H](OC(C)=O)[C@@H](COC(C)=O)O2)[C@H](OC(C)=O)[C@@H](OC(C)=O)[C@@H]1OC(C)=O (some centres not stated) for me?
0.0995

Reported z-score, compound "COC(=O)CC=C[C@H](C)[C@@H](OCc1cccc(Br)c1)[C@@H](C)[C@H](OC)C1CCCCC1" : ____
0.675

I am curious: what z-score value has been reported for Cc1ccc(S(=O)(=O)NC(CCc2ccccc2)CC(=O)C(C)(C)C)cc1 (configuration not stated) ?
0.0974

* * *

# ASSAY_SYSTEM: NADPH oxidase 2 (Homo sapiens)
# ASSAY: NOX2-dependent H2O2 signal modulators, primary screen, NOX inhibitor project, cell-based, HEK293-NOX2, PMA-stimulated, Amplex Red fluorescence (AID 1159); also: test concentration not given here
# CONDITION_SET: 45 min, higher = more signal, called active from +8 up or from −8 down
Activity calls are given as the source filed them.
RESULT_TYPE: z-score

Find the measured z-score: item CCOC(=O)[C@H](Cc1ccccc1)NC(=O)CCC1CC(OC(=O)NCCc2ccc(F)cc2)CC2(CCCC(COC(=O)NCCc3ccc(Cl)cc3)O2)O1 (some centres not stated) , target or system NADPH oxidase 2 (Homo sapiens).
0.526 (inactive)

Value wanted: z-score (NADPH oxidase 2 (Homo sapiens)) of entry "CO[C@@H]1COC(=O)[C@H](CCSC)NC(=O)CC=C[C@@H](C)COC(=O)CCC[C@H]1C"
-1.12 (inactive)

API: value(readout=z-score, system=NADPH oxidase 2 (Homo sapiens)) for record "Cc1cc2c(nc1C)CCCN2CC(O)CN1CCCc2nc(C)c(C)cc21"
0.803 (inactive)

Quick check: z-score on NADPH oxidase 2 (Homo sapiens), item "COC(=O)CC=C[C@@H](C)[C@@H](C=NO[C@H](C)c1cn([C@H](CO)Cc2ccccc2)nn1)OC" ?
0.824 (inactive)

Observed z-score on NADPH oxidase 2 (Homo sapiens) for COC(=O)[C@H](C)NC(=O)CCC1CC(OC(=O)NCCc2ccc(F)cc2)CC2(CCCC(COC(=O)NCc3cccc(C(F)(F)F)c3)O2)O1 (some centres not stated) , please.
1.23 (inactive)

Write down the reported z-score of "COC(=O)CC=C[C@@H](C)[C@@H](C=NO[C@@H]1O[C@H](COC(C)=O)[C@@H](OC(C)=O)[C@H](OC(C)=O)[C@H]1OC(C)=O)NS(=O)(=O)c1ccc(C)cc1" , test system: NADPH oxidase 2 (Homo sapiens).
0.837 (inactive)

Param readout= z-score; system= NADPH oxidase 2 (Homo sapiens); entry= "CCOC(=O)CCN1C(=O)[C@H]2[C@H]3[C@H](O)[C@H](O)CC(=NOCC(C)C)[C@H]3CC[C@H]2C1=O" ; returns value.
-0.864 (inactive)

* * *

# ASSAY: small-molecule microarray binders of probe aShh, primary screen, biochemical, biotinylated probe, 635/667 nm fluorescence (AID 1114);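 also: probe is biotin-labelled aShh protein from a stem cell growth factor screen; measures binding of labelled protein to compounds printed on the slide; score merges feature fluorescence at 667 nm with signal-to-noise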
# CONDITION_SET: higher = more signal
Returns one of True or False; True when composite z-score is >= -0.04.

Entry "O=C1C=C[C@@H](O)[C@@H]2[C@@H]3C(=O)N(C[C@@H]4CCCO4)C(=O)[C@@H]3CC[C@@H]12" : is its composite z-score no less than -0.04?
True

Is the recorded value of composite z-score equal to or greater than -0.04 for this compound? CCOC(=O)[C@H](CC(C)C)NC(=O)CCC1CC(OC(=O)NCCc2ccc(F)cc2)CC2(CCCC(COC(=O)NCC3CCCCC3)O2)O1 (stereo partly drawn)
True

Decide: composite z-score of "Cn1c(=O)n2n(c1=O)[C@H]1[C@H](O)[C@@H]3O[C@@H]3C(=O)[C@H]1CC2" >= -0.04?
True

Please indicate if the recorded composite z-score for CCOC(=O)[C@H](CC(C)C)NC(=O)CCC1CC(OC(=O)NCCc2ccc(F)cc2)CC2(CCCC(COC(=O)NCCC(C)C)O2)O1 (stereo partly drawn) meets or exceeds -0.04.
False

Is composite z-score for "CC(CCN1CCCCc2nc(C)c(C)cc21)=NO[C@H](C)c1cn([C@H](CO)Cc2ccccc2)nn1" at or above -0.04?
True

Decide: is the reported value of composite z-score for "CO[C@H]1COC(=O)CC=C[C@H](C)[C@@H](OC)COC(=O)[C@@H](C)COC(=O)CC=C[C@@H]1C" equal to or greater than -0.04?
False

Hello, I need to know if "C[C@@H]1C=CCC(=O)OC[C@H]2O[C@@H](C=C[C@@H]2O)[C@H](C)C=CCC(=O)OC1" has measured composite z-score not below -0.04. Thanks!
False

Hello, I need to know if "C=CC[C@@H]1C=C[C@H](ON=C(C)CCN2CCc3nc(-c4ccccc4)c(-c4ccccc4)cc3C2)[C@@H](CO)O1" has measured composite z-score not below -0.04. Thanks!
False

* * *

Please provide measured composite z-score for the entries that follow.
# System: Noggin (protein binding on small-molecule microarray)
# ASSAY: Noggin binders on small-molecule microarray, primary screen, biochemical, 635/667 nm fluorescence (AID 1095);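 also: score merges 667 nm feature fluorescence with signal to noise over triplicate slides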
# CONDITION_SET: 635 nm fluorescence, higher = more signal
// return just the number, without any unit appended

# input compound: "CCN1C(=O)[C@H]2[C@H]3[C@H](O)[C@H](O)CC(=NNC(=O)OCc4ccc(OC)cc4)[C@@H]3CC[C@H]2C1=O" ; wanted: its composite z-score
0.51

GET /values?readout=composite z-score&item= CCOC(=O)[C@H](CC(C)C)NC(=O)CCC1CC(OC(=O)NCCc2ccc(F)cc2)CC2(CCCC(COC(=O)NCCOc3ccccc3)O2)O1 (some centres undefined)
0.676

I am curious: what composite z-score value has been reported for "O=C1C=C[C@@H](O)[C@@H]2[C@@H]3C(=O)N(c4ccc(F)cc4F)C(=O)[C@@H]3CC[C@@H]12" ?
1.08

What does the record list as composite z-score for "CC(C)CCN1CCc2nc(COc3ccccc3)c3c(c2C1)CO[C@@H](C)C3" ?
-0.0126

Param item = "O=C1[C@H]2[C@H]3[C@H](O)[C@H](O)CC(=NOC[C@@H](O)COCc4ccco4)[C@H]3CC[C@H]2C(=O)N1c1ccc(F)cc1F" ; retrieve measured composite z-score.
-0.349

GET /values?readout=composite z-score&item= "CC(C)CON=C1C[C@@H](O)[C@@H](O)[C@@H]2[C@@H]3C(=O)N(C4CCCCC4)C(=O)[C@@H]3CC[C@H]12"
0.683

Which value of composite z-score has been reported for "CC(C)=NO[C@H](C)c1cn([C@H](CO)Cc2ccccc2)nn1" in the records?
-0.0003

Any idea what its composite z-score is? The compound is "COC(=O)CC=C[C@@H](C)[C@@H](C=NOCC[C@@H]1C=C[C@H](OC(C)=O)[C@@H](COC(C)=O)O1)OC"
0.405

Look at this compound and give its reported composite z-score. "CCOC(=O)NN=C1C[C@@H](O)[C@@H](O)[C@@H]2[C@@H]3C(=O)N(c4cccc(Oc5ccccc5)c4)C(=O)[C@@H]3CC[C@H]12"
0.311

Value lookup for composite z-score; key = "CO[C@@H]1COC(=O)CC=C[C@H](C)[C@H](OC)COC(=O)[C@H](C)NC(=O)CC=C[C@H]1C"
1.83

I'd like to know its composite z-score. The compound in question is "CCCNC(=O)OC[C@H]1O[C@H](CCON=Cc2ccc(C(=O)N3[C@H](c4ccc(C)cc4)[C@@H](C)CC[C@H]3C(=O)OC)cc2)C=C[C@@H]1Oc1ccc(OC)cc1"
1.03

Fill in: composite z-score of CCOC(=O)[C@H](CC(C)C)NC(=O)CCC1CC(OC(=O)NCCc2ccc(F)cc2)CC2(CCCC(COC(=O)NCC3CCCCC3)O2)O1 (some centres undefined) is ___
0.266

Dear colleague, I am looking for the recorded composite z-score of the following compound: "COc1cccc([C@H]2Oc3ccc(OC)cc3C(=NO[C@@H](C)c3cn([C@H](CO)Cc4ccccc4)nn3)[C@@H]2O)c1"
-0.335

Item "CSCC[C@@H]1NC(=O)CC=C[C@@H](C)COC(=O)[C@@H](C)COC1=O" has what recorded composite z-score?
0.882

Report composite z-score for CCOC(=O)[C@H](Cc1ccccc1)NC(=O)CCC1CC(OC(=O)NCCc2ccc(F)cc2)CC2(CCCC(COC(=O)NCCc3ccc(Cl)cc3)O2)O1 (some centres undefined) please.
0.658

State the recorded composite z-score for this entry: "O=c1n(-c2ccccc2)c(=O)n2n1CC[C@@H]1C(=NOCc3ccccc3)[C@H]3O[C@H]3[C@@H](O)[C@@H]12"
-0.131

What value of measured composite z-score is listed for CC(C)C[C@H](NC(=O)CCC1CC(OC(=O)NCc2cccc3ccccc23)CC2(CCCC(COC(=O)NCc3ccccc3)O2)O1)C(=O)NCC(c1ccccc1)c1ccccc1 (some centres undefined) ?
1.64

Which value of composite z-score has been reported for COc1ccc(O[C@H]2C=C[C@@H](c3ccccc3)O[C@@H]2COC(=O)CCC(C)=NOC(C)CN2CCCc3nc(C)c(C)cc32)cc1 (some centres undefined) in the records?
0.755

State the recorded composite z-score for this entry: "O=C1C[C@@H](O)[C@@H](O)[C@@H]2[C@@H]3C(=O)N(C[C@@H]4CCCO4)C(=O)[C@@H]3CC[C@H]12"
0.394

Reported composite z-score for "COC(=O)CC=C[C@@H](C)[C@@H](C=NO[C@@H](C)c1cn([C@H](CO)Cc2ccccc2)nn1)NS(=O)(=O)c1ccc(C)cc1" : what is it?
0.321

Suppose we examine the compound "COc1cccc([C@H]2Oc3ccc(OC)cc3C(=NO[C@@H]3O[C@H](COC(C)=O)[C@@H](OC(C)=O)[C@H](OC(C)=O)[C@H]3OC(C)=O)[C@@H]2O)c1" ; what composite z-score value has been reported?
0.35

Give the measured composite z-score of "CCOC(=O)CCN1C(=O)[C@H]2[C@H]3[C@H](O)[C@H](O)CC(=NOCc4ccccc4)[C@H]3CC[C@H]2C1=O" .
-0.316

Record request: composite z-score value, item "CC(CCN1CCc2nc(-c3ccccc3)c(-c3ccccc3)cc2C1)=NOC[C@@H](O)COCc1ccco1"
0.806

Requested read-out: composite z-score. Entry: "C=CC[C@@H]1C=C[C@H](ON=C[C@@H](C)[C@H](OCc2ccccc2)C(C)C)[C@@H](CO)O1"
-0.244

Endpoint output: composite z-score of "CCN1C(=O)[C@H]2[C@H]3[C@H](O)[C@H](O)CC(=O)[C@H]3CC[C@H]2C1=O" . Value?
0.675

Which composite z-score is listed for "COC(=O)[C@@H]1CC[C@H](C)[C@@H](c2ccc(C)cc2)N1C(=O)c1ccc(C=NO[C@@H](C)c2cn([C@H](CO)Cc3ccccc3)nn2)cc1" ?
1.19

Look up composite z-score: COC(=O)[C@H](C)NC(=O)CCC1CC(OC(=O)NCCc2ccc(F)cc2)CC2(CCCC(COC(=O)NCCC(C)C)O2)O1 (some centres undefined)
1.06

Returns the measured composite z-score for the input compound. Input: "CO[C@H]1COC(=O)CC=C[C@H](C)[C@@H](OC)COC(=O)[C@@H](C)NC(=O)CC=C[C@@H]1C"
1.54

Which measured composite z-score value corresponds to "CC(C)=CCCC(C)=CCON=C1C[C@@H](O)[C@@H](O)[C@@H]2[C@@H]3C(=O)N(c4cccc(Oc5ccccc5)c4)C(=O)[C@@H]3CC[C@@H]12" ?
-0.283
